System: RON substance synthetase
assay comment: Inhibition and activation of the enzyme by metal chlorides
Format: biochemical, Leuconostoc mesenteroides subsp. dextranicum, BL-75
assay context: 1 mM metal chloride; not added = 100; 30 min
assay metric: Relative Activity (%)

> print(dat)
                     compound  meas.value
1        [Cl][Ni][Cl] [NiCl2]          98
2  [Cl-].[Cl-].[Zn+2] [ZnCl2]          93
3  [Cl][Fe]([Cl])[Cl] [FeCl3]          82
4  [Cl-].[Cl-].[Mg+2] [MgCl2]          78
5  [Cl-].[Cl-].[Co+2] [CoCl2]          95
6  [Ca+2].[Cl-].[Cl-] [CaCl2]         110
7        [Cl][Cu][Cl] [CuCl2]          50
8        [Cl][Mn][Cl] [MnCl2]          75
9        [Cl][Fe][Cl] [FeCl2]         103
